Tested on: Thoracic aorta
METHOD_DESCRIPTION: Vasodilatory activity in New Zealand White rabbit thoracic aorta assessed as relaxation of (-)-noradrenaline-induced contractile response at 1 uM relative to untreated control
Format: functional, Oryctolagus cuniculus
Design: scale not given: the % may be the effect or the level left
MEASURED_ENDPOINT: Activity (%)
Give the quantity in %, number only.

COC(=O)Cc1ccc(OCC(O)CN2CCN(c3cccc(OC)c3)CC2)cc1 (configuration not stated) : 23.7
COC(=O)Cc1ccc(OCC(O)CN2CCN(c3ccccc3Cl)CC2)cc1 (configuration not stated) : 58.7
COC(=O)Cc1ccc(OCC(O)CN2CCN(c3cc(C)ccc3C)CC2)cc1 (configuration not stated) : 66.2

## Task Provide one value: measured Activity of CCOc1cccc(N2CCN(CC(O)COc3ccc(CC(=O)OC)cc3)CC2)c1 (configuration not stated)
## Result 10.2

## Task Provide one value: measured Activity of COC(=O)Cc1ccc(OCC(O)CN2CCN(c3cc(Cl)c(OC)cc3OC)CC2)cc1 (configuration not stated)
## Result 20.4

## Task Provide one value: measured Activity of COC(=O)Cc1ccc(OCC(O)CN2CCN(c3ccc(C)cc3)CC2)cc1 (configuration not stated)
## Result 28.7

## Task Provide one value: measured Activity of COC(=O)Cc1ccc(OCC(O)CN2CCN(c3ccc(OC)cc3)CC2)cc1 (configuration not stated)
## Result 7

## Task Provide one value: measured Activity of COC(=O)Cc1ccc(OCC(O)CN2CCN(c3ccccc3C)CC2)cc1 (configuration not stated)
## Result 62.3

## Task Provide one value: measured Activity of COC(=O)Cc1ccc(OCC(O)CN2CCN(c3ccc(Br)cc3)CC2)cc1 (configuration not stated)
## Result 16.6

## Task Provide one value: measured Activity of COC(=O)Cc1ccc(OCC(O)CN2CCN(c3ccc(C)cc3C)CC2)cc1 (configuration not stated)
## Result 43.3

## Task Provide one value: measured Activity of COC(=O)Cc1ccc(OCC(O)CN2CCN(c3ccc(C)c(Cl)c3)CC2)cc1 (configuration not stated)
## Result 25.9

## Task Provide one value: measured Activity of COC(=O)Cc1ccc(OCC(O)CN2CCN(c3ccc(C)c(C)c3)CC2)cc1 (configuration not stated)
## Result 28.4
